Entries and their melting point values follow.

{"columns": ["compound", "melting point"],
 "data": [
  ["C#CC[C@H]1CC[C@H](CO)CC1", "106 to 108 °C"],
  ["N#Cc1nn(-c2c(Cl)cc(C(F)(F)F)cc2Cl)c(N)c1OC(F)F", "152 to 154 °C"],
  ["Cc1nccc(N)c1N", "170 to 171 °C"],
  ["COc1ccc2c(c1)cc(C(=O)c1cc3ccccc3n1S(=O)(=O)c1ccccc1)n2S(=O)(=O)c1ccccc1", "205 °C"],
  ["N#Cc1cccc2c1CC(=NN)c1cc(F)ccc1S2", "220 to 222 °C"],
  ["CCc1cc(-c2ccc(-c3ccn(C)n3)cc2)ccc1OC", "167 to 170 °C"],
  ["CC(=O)Oc1c(C)c(C)c2c(c1C)C(=O)CC(O)(COc1ccc([N+](=O)[O-])cc1)O2 (stereo not given)", "204 to 207 °C"],
  ["NC1=C(C(=O)c2ccc(Cl)cc2Cl)OC2N=C(O)C=CC12 (stereo not given)", "> 305 °C"],
  ["CCOCCC(Cc1ccc(NC(=O)NC(=O)c2ccc(C#N)cc2)cc1)C(=O)OC(C)(C)C (stereo not given)", "144 to 145 °C"],
  ["CSC(=C[N+](=O)[O-])Nc1ccc(C#N)cc1", "188 to 190 °C"],
  ["CCCc1cc(NC(=O)c2c(C)nn(C)c2C)c(C)c(-c2cc(CCC)c(C(C(F)(F)F)C(F)(F)F)cc2C)c1", "128 to 131 °C"],
  ["COCCOc1ccc(CCCOC(=O)NCC2CC2)c(Oc2ncc(C(F)(F)F)cc2Cl)c1", "87.8 to 87.9 °C"],
  ["COC(=O)c1cc(Cl)c(Oc2ccc(OC)c(Cc3ccc(F)cc3)c2)c(Cl)c1", "108 to 110 °C"],
  ["CCOC(=O)c1cnc2sc3c(n12)CCC3", "101 to 102 °C"],
  ["O=[N+]([O-])c1ccc2nc(-c3ccccc3)oc2n1", "219 to 220 °C"],
  ["CCN(CC)Cc1cc(Nc2snc3ccccc23)ccc1O", "164 to 165 °C"],
  ["O=C(c1cccs1)c1cnn2c(-c3cccc(NC(=S)Nc4ccccc4)c3)ccnc12", "124 to 126 °C"],
  ["CC(C)c1c(CO)c(-c2ccc(F)cc2)c2ccccn12", "90 to 92 °C"],
  ["O=C(O)c1ccc(=O)n(CCNC(=O)c2cccnc2)c1", "> 295 °C"],
  ["CSc1c(SC)c(OC(C)=O)c2cc(Cl)ccc2c1OC(C)=O", "113 to 114 °C"]
]}
